# tested on: Proto-oncogene tyrosine-protein kinase receptor Ret (Homo sapiens)
# condition parameters: at 1 µM
readout type: residual activity (%)
Please state the figure in %; there is no need to write the unit.

[[record]]
smiles_str = "O=C1NC(=O)C(c2cn(CCCn3ccnc3)c3ccccc23)=C1Nc1ccccc1"
tested_on = "Proto-oncogene tyrosine-protein kinase receptor Ret (Homo sapiens)"
readout_type = "residual activity"
assay_value = 102

[[record]]
smiles_str = "CCN(CC)CCNC(=O)c1c(C)[nH]c(/C=C2\\C(=O)Nc3ccc(Cl)cc32)c1C"
tested_on = "Proto-oncogene tyrosine-protein kinase receptor Ret (Homo sapiens)"
readout_type = "residual activity"
assay_value = -1


Identify the reported residual activity for the following entry. "COc1cc2nccc(Oc3ccc(NC(=S)NC(=O)c4ccccc4C)cc3)c2cc1OC"
75

Identify the reported residual activity for the following entry. "Nc1ncnc2[nH]nc(Nc3ccc(F)cc3)c12"
72

Identify the reported residual activity for the following entry. "CCCCc1c(-c2ccc(O)cc2)[nH]c2nccnc12"
45

Identify the reported residual activity for the following entry. "Nc1ncnc2c1cnn2-c1ccccc1"
101
